# EXPERIMENTAL_TARGET: 5-hydroxytryptamine receptor 2C (Homo sapiens) (UniProt P28335)
# Sequence (P28335 whole entry): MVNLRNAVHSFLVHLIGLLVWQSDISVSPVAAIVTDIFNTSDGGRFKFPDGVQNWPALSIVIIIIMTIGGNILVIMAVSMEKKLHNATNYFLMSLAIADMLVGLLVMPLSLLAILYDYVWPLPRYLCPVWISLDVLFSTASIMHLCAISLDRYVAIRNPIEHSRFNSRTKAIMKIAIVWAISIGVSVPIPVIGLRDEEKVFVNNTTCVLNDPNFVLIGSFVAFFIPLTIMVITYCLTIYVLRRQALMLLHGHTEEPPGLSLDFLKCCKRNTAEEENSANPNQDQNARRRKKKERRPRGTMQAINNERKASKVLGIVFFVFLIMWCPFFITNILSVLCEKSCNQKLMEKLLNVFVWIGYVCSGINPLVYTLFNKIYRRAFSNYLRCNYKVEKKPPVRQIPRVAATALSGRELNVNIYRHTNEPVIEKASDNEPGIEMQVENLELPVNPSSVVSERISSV
# RECORDED_CONDITIONS: Compound concentration 10 µM
# Description: PDSP Primary Binding target: HTR2C - Compounds are tested at 10 uM concentration, plate are incubated at room temperature in the dark for 90 minutes. Reaction are stopped by vacuum filtration onto 0.3% polyethyleneimine soaked filter mats using Filtermate harvester. Scintilation cocktail is then melted onto microwave-dried filters on a hot plate and the radio activity is counted in Microbia counter.
Note to self: values exactly at 20% are yes. So inhibition at or above 20% is yes, below is no.

C[C@H](CO)Nc1nc(SCc2cccc(Cl)c2F)nc2[nH]c(=O)sc12    no
CCc1nn2c(C)cc(C)nc2c1Cc1ccc(-c2nnc(C3CCNCC3)o2)cc1    no
CN1CC(=O)N=C1NC(=O)Nc1cccc(Cl)c1    no
CCCCCCCCCCCCCCCCOC[C@H](COP(=O)([O-])OCC[N+](C)(C)C)OC(C)=O    yes

Kindly review the next molecule as well.
Request: In plain terms: is recorded inhibition at least 20% for CN(C)C(=O)N[C@H]1CC[C@H](CCN2CCN(c3cccc(Cl)c3Cl)CC2)CC1 ?
Response: yes

###

# EXPERIMENTAL_TARGET: 5-hydroxytryptamine receptor 3A (Homo sapiens)
# RECORDED_CONDITIONS: Compound concentration 10 µM
# Description: PDSP Primary Binding target: HTR3A - Compounds are tested at 10 uM concentration, plate are incubated at room temperature in the dark for 90 minutes. Reaction are stopped by vacuum filtration onto 0.3% polyethyleneimine soaked filter mats using Filtermate harvester. Scintilation cocktail is then melted onto microwave-dried filters on a hot plate and the radio activity is counted in Microbia counter.
Note to self: values exactly at 20% are 1.0. So inhibition at or above 20% is 1.0, below is 0.0.

Reference set, count: 5
Cc1ccc2c(c1)c1c(n2CCc2ccc(C)nc2)CCN(C)C1    1.0
O=C(O)C1CN(Cc2ccc(OCc3ccc(Cl)c(Cl)c3)cc2)C1    0.0
CC(C)C[C@H](NC(=O)N1CCCCCC1)C(=O)N[C@H](Cc1cn(C)c2ccccc12)C(=O)N[C@H](Cc1ccccn1)C(=O)O    0.0
C[C@]1(C(=O)N(CCCC(=O)O)Cc2cccc(Cl)c2)CCN1C(=O)c1csc2ccccc12    0.0
COc1ccc(NS(=O)(=O)c2sc3ccc(Cl)cc3c2C)cc1N1CCNCC1    1.0

Request: In plain terms: is recorded inhibition at least 20% for Cc1c(P(=S)(c2ccccc2)c2ccccc2)n2ccccc2[n+]1C/C=C/c1ccccc1 ?
Response: 1.0

Request: In plain terms: is recorded inhibition at least 20% for CCCCN(CCCC)C(=O)CN1C[C@@H](c2ccc3c(c2)OCO3)[C@H](C(=O)O)[C@H]1c1ccc(OC)cc1 ?
Response: 0.0

Request: In plain terms: is recorded inhibition at least 20% for CCCCN(CC)c1nc(C)nc2c1c(C)cn2-c1c(C)cc(C)cc1C ?
Response: 0.0

###

# EXPERIMENTAL_TARGET: D(3) dopamine receptor (Homo sapiens)
# RECORDED_CONDITIONS: Compound concentration 10 µM
# Description: PDSP Primary Binding target: DRD3 - Compounds are tested at 10 uM concentration, plate are incubated at room temperature in the dark for 90 minutes. Reaction are stopped by vacuum filtration onto 0.3% polyethyleneimine soaked filter mats using Filtermate harvester. Scintilation cocktail is then melted onto microwave-dried filters on a hot plate and the radio activity is counted in Microbia counter.
Below, each entry is listed alongside its reported inhibition.
Just the number in %, nothing appended.

# count of solved cases: 9
Brc1c(NC2=NCCN2)ccc2nccnc12    29.2
CCc1nn(CCCN2CCN(c3cccc(Cl)c3)CC2)c(=O)n1CCOc1ccccc1    86.1
CCCCCCCCCCCCC/C=C/[C@@H](O)[C@@H](N)COP(=O)(O)O    1.79
CCc1ccc(OCc2ccccc2C(=O)Nc2ccc3nc(C)cc(N)c3c2)cc1    33.9
Cc1cc(C)cc(C(=O)N(C)[C@H](Cc2ccc(-c3ccccc3)cc2)C(=O)N[C@@H](Cc2c[nH]c3ccccc23)C(=O)O)c1    3.03
CC(C)NCC(O)COc1ccc(CCOCC2CC2)cc1 (stereo not given)    5.81
Cc1cc(NC(=O)Nc2ccc(N(C)C)cc2)c2cc(F)cc(F)c2n1    34.5
N#Cc1c[nH]c2c(C(=O)N3CCN(CCc4ccc(F)cc4)CC3)cccc12    10.4
Cc1c(OCc2cccc(-c3ccc(C(=O)O)cc3)c2)cc2c(c1C)C(=O)C(C1CCCC1)C2 (stereo not given)    33.5

Request: Look up inhibition of Cc1nc2sccn2c(=O)c1CCN1CCC(=C(c2ccc(F)cc2)c2ccc(F)cc2)CC1 and report it.
Response: 94.6
